- Measured On: TcMetRS (Trypanosoma cruzi, UniProt Q4D6H2)
- Sequence (Q4D6H2 entry or part of it): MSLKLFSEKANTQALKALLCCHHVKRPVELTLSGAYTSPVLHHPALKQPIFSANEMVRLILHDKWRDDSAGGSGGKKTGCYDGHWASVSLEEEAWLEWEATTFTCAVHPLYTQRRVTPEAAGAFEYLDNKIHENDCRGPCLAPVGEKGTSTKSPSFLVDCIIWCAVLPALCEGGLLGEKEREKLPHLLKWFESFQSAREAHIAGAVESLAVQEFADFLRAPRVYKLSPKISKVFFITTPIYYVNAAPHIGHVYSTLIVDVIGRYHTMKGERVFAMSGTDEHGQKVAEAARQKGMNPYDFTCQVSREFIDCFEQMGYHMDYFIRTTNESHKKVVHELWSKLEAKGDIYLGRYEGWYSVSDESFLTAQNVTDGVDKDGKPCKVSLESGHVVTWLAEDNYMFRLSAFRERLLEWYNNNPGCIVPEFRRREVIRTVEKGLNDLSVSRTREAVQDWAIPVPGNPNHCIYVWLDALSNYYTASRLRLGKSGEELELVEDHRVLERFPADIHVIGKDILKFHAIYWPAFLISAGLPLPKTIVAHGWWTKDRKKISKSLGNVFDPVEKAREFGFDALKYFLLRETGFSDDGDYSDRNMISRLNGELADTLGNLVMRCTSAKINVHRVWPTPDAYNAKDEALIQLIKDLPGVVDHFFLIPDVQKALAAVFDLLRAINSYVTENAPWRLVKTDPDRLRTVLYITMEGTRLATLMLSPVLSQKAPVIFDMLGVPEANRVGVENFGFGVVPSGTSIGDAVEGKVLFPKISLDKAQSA
- Test Details: TcMetRS BIOMOL Green biochemical assay, 10-point dose response
- Applied Conditions: 50 μM methionine, 100 μM ATP, 80 nM TcMetRS; read-out: TcMetRS pIC50 (converted)
Endpoint Label: IC50

Worked cases, answers included:
{"Compound": "O=c1nc(NCCCNCc2cc3c(Cl)cc(Cl)cc3[nH]2)[nH]c2ccccc12 [DDD806905, reference compound]", "Result": "0.0398 µM"}
{"Compound": "CN(c1cccc(F)c1)c1nc(NCCO)c2cnn(C)c2n1", "Result": "> 100 µM"}
{"Compound": "CNC(=O)CNc1nc(Nc2ccc(F)c(F)c2)nc2c1cnn2C", "Result": "> 100 µM"}
{"Compound": "COC(=O)[C@@H](CO)Nc1nc(Nc2ccc(F)c(F)c2)nc2c1cnn2C", "Result": "39.8 µM"}
{"Compound": "CNc1nc(Nc2ccc(F)c(F)c2)nc2c1cnn2C", "Result": "> 100 µM"}
{"Compound": "Cn1ncc2c(NCCO)nc(NC3CCOCC3)nc21", "Result": "> 100 µM"}

Okay, next one:
Give the reported IC50 for Cn1ncc2c(NCCO)nc(N3CCCCC3)nc21 (system: TcMetRS (Trypanosoma cruzi, UniProt Q4D6H2)).
> 100 µM
